System: NCI-H522
assay_notes: NCI tumour cell line growth inhibition, 48 h
Activity calls are given as the source filed them. No stated cut-off is given here; in the data, active = GI50 up to about 1.1 µM and inactive = higher.
Mark one answer only. Choices: t (active), f (inactive)

In: Fill in: this test's call for "COc1ncc(C#CC(=O)c2ccccc2)c(OC)n1" is ___
Out: f

In: Fill in: this test's call for CN1C(=O)n2c(nc3ccccc32)C(N=[N+]=[N-])(N=[N+]=[N-])C1=O (centres undefined) is ___
Out: f

In: Fill in: this test's call for "S=C(NN=C1NCCCCN1)Nc1ccc(Cl)cc1" is ___
Out: f

In: Fill in: this test's call for CC[C@@H](C(=O)[C@@H](C)[C@@H](O)[C@H](C)CCc1ccc(C)c(O)c1C(=O)O)[C@H]1O[C@](CC)([C@H]2CC[C@](O)(CC)[C@H](C)O2)C[C@@H]1C [LASALOCID A SODIUM] is ___
Out: t

In: Fill in: this test's call for "CCCCc1c(C(=O)OC(C)(C)C)cc(C#Cc2cc(C(=O)OC(C)(C)C)c(CCCC)c(C(=O)OC(C)(C)C)c2)cc1C(=O)OC(C)(C)C" is ___
Out: f

In: Fill in: this test's call for c1ccc2c(Cc3c[nH]c4ccccc34)c[nH]c2c1 [ARUNDINE] is ___
Out: f

In: Fill in: this test's call for "COC(=O)[C@]12CCC(=O)N1[C@H](C(=O)O)Cc1c2[nH]c2ccccc12" is ___
Out: f

In: Fill in: this test's call for "O=[N+]([O-])/C=C/c1ccc2ccccc2c1" is ___
Out: f

In: Fill in: this test's call for "O=C1C(Cl)=C(N2CCN(c3ccccn3)CC2)C(=O)c2ncccc21" is ___
Out: f
